assay: Pharmacokinetic evaluation in mice
Assay type: in vivo, female Balb/c mice
condition.info: female, Balb/c, mouse, plasma, PO 75 mg/kg
test.readout: half-life (min)
// units = min; emit number, no label

Inquiry: Would you mind telling me what half-life value was observed for O=C1NCc2c(-c3cnc4cc(F)ccn34)ccc(Nc3ccc4c(n3)OC[C@H]3COCCN43)c21 [Trifluoroacetate of compound 9] ?
Reply text: 48

====

Test system: MDR1 (P-glycoprotein)
assay: Permeability evaluation in MDR1-MDCK II cells
Format: in vitro ADME
condition.info: dog, pH 7.4, class by Papp, read-out: Conclusion of the permeability
test.readout: Papp at 150 min, 2 μM

Inquiry: Would you mind telling me what Papp at 150 min, 2 μM value was observed for Cn1ccc2c(-c3ncc(Nc4ccc5c(n4)OC[C@H]4COCCN54)c4c3CNC4=O)ccnc21 [Trifluoroacetate of compound 20] ?
Reply text: 1 to 5.5 ×10⁻⁶ cm/s

====

assay: Pharmacokinetic evaluation in mice
Format: in vivo, female Balb/c mice
condition.info: female, Balb/c, mouse, plasma, PO 75 mg/kg
test.readout: AUC(0-t) (µM·h)
// units = µM·h; emit number, no label

Inquiry: Would you mind telling me what AUC(0-t) value was observed for O=C1NCc2c(-c3cnc4cc(F)ccn34)ccc(Nc3ccc4c(n3)OC[C@H]3COCCN43)c21 [Trifluoroacetate of compound 9] ?
Reply text: 108

====

Tested on: MDR1 (P-glycoprotein)
assay: Permeability evaluation in MDR1-MDCK II cells
Assay type: in vitro ADME
condition.info: dog, pH 7.4, 2.00 μM, 150 minutes
test.readout: Papp A→B at 150 min, 2 μM (×10⁻⁶ cm/s)
// units = ×10⁻⁶ cm/s; emit number, no label

Inquiry: Would you mind telling me what Papp A→B at 150 min, 2 μM value was observed for Cn1ccc2c(-c3ncc(Nc4ccc5c(n4)OC[C@H]4COCCN54)c4c3CNC4=O)ccnc21 [Trifluoroacetate of compound 20] ?
Reply text: 4.61

====

assay: Pharmacokinetic evaluation in mice
Type: in vivo, female Balb/c mice
condition.info: female, Balb/c, mouse, plasma, PO 75 mg/kg
test.readout: AUC(0-inf) (µM·h)
// units = µM·h; emit number, no label

Inquiry: Would you mind telling me what AUC(0-inf) value was observed for O=C1NCc2c(-c3cnc4cc(F)ccn34)ccc(Nc3ccc4c(n3)OC[C@H]3COCCN43)c21 [Trifluoroacetate of compound 9] ?
Reply text: 108

====

test.target: human GLK (Homo sapiens (Human), UniProt Q8IVH8)
Sequence (Q8IVH8 whole entry): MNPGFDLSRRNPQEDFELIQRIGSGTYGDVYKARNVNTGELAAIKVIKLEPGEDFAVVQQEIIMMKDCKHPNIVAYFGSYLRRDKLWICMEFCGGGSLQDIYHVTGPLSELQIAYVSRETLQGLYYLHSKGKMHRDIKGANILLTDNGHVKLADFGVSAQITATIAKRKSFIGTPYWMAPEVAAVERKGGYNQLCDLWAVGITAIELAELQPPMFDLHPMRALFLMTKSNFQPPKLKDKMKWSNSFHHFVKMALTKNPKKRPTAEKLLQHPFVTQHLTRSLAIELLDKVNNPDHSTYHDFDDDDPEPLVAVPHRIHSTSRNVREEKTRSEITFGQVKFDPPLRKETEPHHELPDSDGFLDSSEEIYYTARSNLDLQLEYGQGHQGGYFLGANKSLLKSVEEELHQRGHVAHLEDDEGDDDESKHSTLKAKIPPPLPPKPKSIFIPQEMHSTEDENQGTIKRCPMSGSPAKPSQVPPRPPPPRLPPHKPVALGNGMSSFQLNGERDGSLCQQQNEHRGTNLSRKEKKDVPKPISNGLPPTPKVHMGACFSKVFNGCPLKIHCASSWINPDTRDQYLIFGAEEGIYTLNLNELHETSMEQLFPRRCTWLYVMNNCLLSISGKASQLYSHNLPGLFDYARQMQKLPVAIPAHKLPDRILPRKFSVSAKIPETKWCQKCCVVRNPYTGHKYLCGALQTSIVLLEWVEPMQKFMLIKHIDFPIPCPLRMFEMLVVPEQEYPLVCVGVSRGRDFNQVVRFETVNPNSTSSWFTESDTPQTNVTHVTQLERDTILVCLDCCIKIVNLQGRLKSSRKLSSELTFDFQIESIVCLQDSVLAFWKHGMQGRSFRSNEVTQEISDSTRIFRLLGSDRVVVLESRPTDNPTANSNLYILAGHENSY
assay: Kinase activity assay using ADP-Glo method, GLK
Assay type: biochemical
condition.info: GLK enzyme concentration 8 nM; ATP 20 μM
Overview of reported pIC50 across a group of compounds:
For clarity, pIC50 is expressed as the negative log10 of concentration in mol/L.

Inquiry: Would you mind telling me what pIC50 value was observed for O=C1NCc2c(-c3cnc4cc(F)ccn34)ccc(Nc3ccc4c(n3)OC[C@@H]3COCCN43)c21 ?
Reply text: 6.81

====

System: MDR1 (P-glycoprotein)
assay: Permeability evaluation in MDR1-MDCK II cells
Assay type: in vitro ADME
condition.info: dog, pH 7.4, 2.00 μM, 150 minutes
test.readout: Papp B→A at 150 min, 2 μM (×10⁻⁶ cm/s)
// units = ×10⁻⁶ cm/s; emit number, no label

Inquiry: Would you mind telling me what Papp B→A at 150 min, 2 μM value was observed for Cn1ccc2c(-c3ncc(Nc4ccc5c(n4)OC[C@H]4COCCN54)c4c3CNC4=O)ccnc21 [Trifluoroacetate of compound 20] ?
Reply text: 22.5
